- Measured Target: human PAH with the R408W mutation (Homo sapiens, UniProt P00439, R408W)
- Construct: expressed in transfected cells
- Test Details: Cell Based Phenylalanine Flux Assay
- Experimental Conditions: A375 cells expressing human R408W PAH; 24 hrs compound incubation; 13C-Tyrosine by LC-MS; average where tested multiple times; read-out: AC50
We begin with a simple list: items and their reported AC50.

# annotated cases, reported AC50 shown
Cc1nc([C@H](C)O)oc1C(=O)N1CCc2[nH]cnc2[C@H]1c1cc2cccc(Cl)n2n1: 500 to 1000 nM
Cc1ccc(-c2nnc(C(=O)N3CCc4[nH]cnc4[C@H]3c3cc4c(C)cccn4n3)o2)nc1: < 500 nM
Cn1nc(Cl)nc1C(=O)N1CCc2[nH]cnc2[C@@H]1c1cc2c(F)cccn2n1: 1000 to 5000 nM

Now consider a different compound.
Given the compound `Cc1cccn2nc([C@@H]3c4nc[nH]c4CCN3C(=O)c3cnn4ccccc34)cc12` , what is its reported AC50?
< 500 nM

---

- Measured Target: human PAH with the R408W mutation (Homo sapiens, UniProt P00439, R408W)
- Construct: expressed in transfected cells
- Test Details: Cell Based Phenylalanine Flux Assay
- Experimental Conditions: A375 cells expressing human R408W PAH; 24 hrs compound incubation; 13C-Tyrosine by LC-MS; average where tested multiple times; read-out: AC50
Experimental Readout: AC50

Cc1cnn(C)c1-c1nnc(C(=O)N2CCc3[nH]cnc3[C@H]2c2cc3cccc(F)n3n2)o1 [Example 1528]: < 0.5 µM
Cc1nc(C(C)(C)F)oc1C(=O)N1CCc2[nH]cnc2[C@H]1c1cc2c(Cl)cccn2n1 [Example 1276]: < 0.5 µM
O=C(c1nnc(-c2ccn(C(F)F)n2)o1)N1CCc2[nH]cnc2[C@@H]1c1cc2c(Cl)cccn2n1 [Example 1119]: > 5 µM

Given the molecule Cc1cccc2cc([C@H]3c4nc[nH]c4CCN3C(=O)c3oc(C4(O)CC4)nc3C(F)F)nn12 [Example 1281] , what is its reported AC50?
1 to 5 µM

---

- Measured Target: human PAH with the R408W mutation (Homo sapiens, UniProt P00439, R408W)
- Construct: expressed in transfected cells
- Sequence (P00439 1-452 R408W): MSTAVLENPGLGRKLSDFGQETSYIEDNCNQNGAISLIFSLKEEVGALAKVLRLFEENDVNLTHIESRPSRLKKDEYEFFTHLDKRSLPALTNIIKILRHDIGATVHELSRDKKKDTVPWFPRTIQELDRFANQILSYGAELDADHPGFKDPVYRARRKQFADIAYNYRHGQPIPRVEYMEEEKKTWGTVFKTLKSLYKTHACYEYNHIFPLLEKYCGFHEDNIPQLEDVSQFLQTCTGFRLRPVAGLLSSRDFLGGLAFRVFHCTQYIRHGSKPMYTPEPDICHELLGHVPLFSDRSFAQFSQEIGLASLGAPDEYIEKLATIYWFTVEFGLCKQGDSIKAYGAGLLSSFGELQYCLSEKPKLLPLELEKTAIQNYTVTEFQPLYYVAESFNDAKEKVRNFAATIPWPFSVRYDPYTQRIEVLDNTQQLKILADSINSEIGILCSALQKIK
- Test Details: Cell Based Phenylalanine Flux Assay;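 also: after compound treatment, cells received sepiapterin plus isotope-labelled Phenylalanine for 4 hours, then labelled Tyrosine in the medium was quantified, 10-point 2-fold dilution series run in duplicate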
- Experimental Conditions: A375 cells expressing human PAH R408W; 24 hrs compound incubation; 13C-Tyrosine by LC-MS; average where tested multiple times; read-out: AC50
Experimental Readout: AC50

# annotated cases, reported AC50 shown
O=C(c1ocnc1C1CC1)N1CCc2[nH]cnc2[C@@H]1c1cc2cccc(Cl)n2n1: 1 to 5 µM
FC(F)(F)c1cccn2nc([C@H]3c4nc[nH]c4CCN3c3nnc(-c4ccncn4)o3)cc12: > 5 µM
O=C(c1nnc(-c2cnn(C(F)(F)F)c2)o1)N1CCc2[nH]cnc2[C@H]1c1cc2c(OC(F)F)cccn2n1: 1 to 5 µM
Cn1cc(-c2nc(C3CC3)c(C(=O)N3CCc4[nH]cnc4[C@@H]3c3cc4c(C(F)F)cccn4n3)o2)cn1: 1 to 5 µM
Cn1cc(-c2nc(C3CC3)c(C(=O)N3CCc4[nH]cnc4[C@@H]3c3cc4c(F)cccn4n3)o2)cn1: > 5 µM
FC(F)(F)Oc1cccn2nc([C@@H]3c4nc[nH]c4CCN3c3ncc(C(F)(F)F)cn3)cc12: < 0.5 µM

Report AC50 for `Fc1cccc(F)c1-c1nnc(N2CCc3[nH]cnc3[C@@H]2c2cc3cccc(C(F)F)n3n2)o1` tested on human PAH with the R408W mutation (Homo sapiens, UniProt P00439, R408W).
> 5 µM
